Assignment: determine reported pKi for the given molecules.
# ASSAYED TARGET: Hepatitis C virus serine protease, NS3/NS4A (Hepatitis C virus, UniProt A3EZI9+D2K2A8, D168A)
# ASSAY EXPLANATION: Inhibition of HCV genotype 1a NS3/4A protease D168A mutant expressed in Escherichia coli BL21(DE3) using Ac-DE-Dap(QXL 520)-EE-Abu-psi-[COO]AS-C(5-FAMsp)-NH2 as substrate preincubated for 1 hr followed by substrate addition
Numbers only, as −log10 of the molar value.

>>> endpoint_value("C=C[C@@H]1C[C@]1(NC(=O)[C@@H]1C[C@@H](Oc2nc3cc(OC)ccc3nc2C)CN1C(=O)[C@@H](NC(=O)OC1CCCC1)C(C)(C)C)C(=O)NS(=O)(=O)C1(C)CC1")
6.85
>>> endpoint_value("C=C[C@@H]1C[C@]1(NC(=O)[C@@H]1C[C@@H](Oc2nc3cc(OC)ccc3nc2C(C)C)CN1C(=O)[C@@H](NC(=O)OC(C)(C)C)C(C)(C)C)C(=O)NS(=O)(=O)C1(C)CC1")
5.93
>>> endpoint_value("C=C[C@@H]1C[C@]1(NC(=O)[C@@H]1C[C@@H](Oc2nc3cc(OC)ccc3nc2C(C)C)CN1C(=O)[C@@H](NC(=O)OC1CCCC1)C(C)(C)C)C(=O)NS(=O)(=O)C1(C)CC1")
6.00
>>> endpoint_value("C=C[C@@H]1C[C@]1(NC(=O)[C@@H]1C[C@@H](Oc2nc3cc(OC)ccc3nc2C(F)(F)F)CN1C(=O)[C@@H](NC(=O)OC1CCCC1)C(C)(C)C)C(=O)NS(=O)(=O)C1(C)CC1")
6.29
>>> endpoint_value("C=C[C@@H]1C[C@]1(NC(=O)[C@@H]1C[C@@H](Oc2nc3cc(OC)ccc3nc2Cl)CN1C(=O)[C@@H](NC(=O)OC(C)(C)C)C(C)(C)C)C(=O)NS(=O)(=O)C1CC1")
6.89

Batch request: pKi for each of the following molecules.
1. C=C[C@@H]1C[C@]1(NC(=O)[C@@H]1C[C@@H](Oc2nc3cc(OC)ccc3nc2CC)CN1C(=O)[C@@H](NC(=O)OC(C)(C)C)C(C)(C)C)C(=O)NS(=O)(=O)C1(C)CC1
2. C=C[C@@H]1C[C@]1(NC(=O)[C@@H]1C[C@@H](Oc2nc3cc(OC)ccc3nc2C(F)(F)F)CN1C(=O)[C@@H](NC(=O)OC1CCCC1)C(C)(C)C)C(=O)NS(=O)(=O)C1CC1
3. C=C[C@@H]1C[C@]1(NC(=O)[C@@H]1C[C@@H](Oc2nc3cc(OC)ccc3nc2Cl)CN1C(=O)[C@@H](NC(=O)OC1CCCC1)C(C)(C)C)C(=O)NS(=O)(=O)C1CC1

1: 6.41; 2: 6.15; 3: 7.00

Batch request: pKi for each of the following molecules.
1. C=C[C@@H]1C[C@]1(NC(=O)[C@@H]1C[C@@H](Oc2nc3cc(OC)ccc3nc2C(C)C)CN1C(=O)[C@@H](NC(=O)OC(C)(C)C)C(C)(C)C)C(=O)NS(=O)(=O)C1CC1
2. C=C[C@@H]1C[C@]1(NC(=O)[C@@H]1C[C@@H](Oc2nc3cc(OC)ccc3nc2C(F)(F)F)CN1C(=O)[C@@H](NC(=O)OC(C)(C)C)C(C)(C)C)C(=O)NS(=O)(=O)C1(C)CC1
3. C=C[C@@H]1C[C@]1(NC(=O)[C@@H]1C[C@@H](Oc2nc3cc(OC)ccc3nc2CC)CN1C(=O)[C@@H](NC(=O)OC1CCCC1)C(C)(C)C)C(=O)NS(=O)(=O)C1CC1

1: 5.96; 2: 6.29; 3: 6.46

----------
# ASSAYED TARGET: Hepatitis C virus serine protease, NS3/NS4A (Hepatitis C virus, UniProt A3EZI9+D2K2A8)
# ASSAY EXPLANATION: Inhibition of wild type HCV genotype 1a NS3/4A protease expressed in Escherichia coli BL21(DE3) using Ac-DE-Dap(QXL 520)-EE-Abu-psi-[COO]AS-C(5-FAMsp)-NH2 as substrate preincubated for 1 hr followed by substrate addition
Assignment: determine reported pKi for the given compounds.
Answers are plain numbers, as −log10 of the molar value.

Below, 5 compounds whose answers are already recorded.
>>> endpoint_value("CCc1nc2ccc(OC)cc2nc1O[C@@H]1C[C@H]2C(=O)N[C@]3(C(=O)NS(=O)(=O)C4CC4)C[C@H]3/C=C\\CCCCC[C@H](NC(=O)OC(C)(C)C)C(=O)N2C1")
8.70
>>> endpoint_value("C=C[C@@H]1C[C@]1(NC(=O)[C@@H]1C[C@@H](Oc2nc3cc(OC)ccc3nc2C)CN1C(=O)[C@@H](NC(=O)OC(C)(C)C)C(C)(C)C)C(=O)NS(=O)(=O)C1(C)CC1")
7.85
>>> endpoint_value("C=C[C@@H]1C[C@]1(NC(=O)[C@@H]1C[C@@H](Oc2nc3cc(OC)ccc3nc2CC)CN1C(=O)[C@@H](NC(=O)OC(C)(C)C)C(C)(C)C)C(=O)NS(=O)(=O)C1CC1")
7.72
>>> endpoint_value("C=C[C@@H]1C[C@]1(NC(=O)[C@@H]1C[C@@H](Oc2nc3cc(OC)ccc3nc2Cl)CN1C(=O)[C@@H](NC(=O)OC(C)(C)C)C(C)(C)C)C(=O)NS(=O)(=O)C1CC1")
8.11
>>> endpoint_value("C=C[C@@H]1C[C@]1(NC(=O)[C@@H]1C[C@@H](Oc2nc3cc(OC)ccc3nc2C(F)(F)F)CN1C(=O)[C@@H](NC(=O)OC1CCCC1)C(C)(C)C)C(=O)NS(=O)(=O)C1(C)CC1")
7.66

Batch request: pKi for each of the following compounds.
1. C=C[C@@H]1C[C@]1(NC(=O)[C@@H]1C[C@@H](Oc2nc3cc(OC)ccc3nc2C(C)C)CN1C(=O)[C@@H](NC(=O)OC1CCCC1)C(C)(C)C)C(=O)NS(=O)(=O)C1(C)CC1
2. C=C[C@@H]1C[C@]1(NC(=O)[C@@H]1C[C@@H](Oc2nc3cc(OC)ccc3nc2Cl)CN1C(=O)[C@@H](NC(=O)OC1CCCC1)C(C)(C)C)C(=O)NS(=O)(=O)C1(C)CC1
3. C=C[C@@H]1C[C@]1(NC(=O)[C@@H]1C[C@@H](Oc2nc3cc(OC)ccc3nc2Cl)CN1C(=O)[C@@H](NC(=O)OC(C)(C)C)C(C)(C)C)C(=O)NS(=O)(=O)C1(C)CC1
4. C=C[C@@H]1C[C@]1(NC(=O)[C@@H]1C[C@@H](Oc2nc3cc(OC)ccc3nc2C)CN1C(=O)[C@@H](NC(=O)OC(C)(C)C)C(C)(C)C)C(=O)NS(=O)(=O)C1CC1
5. C=C[C@@H]1C[C@]1(NC(=O)[C@@H]1C[C@@H](Oc2nc3cc(OC)ccc3nc2C(C)C)CN1C(=O)[C@@H](NC(=O)OC1CCCC1)C(C)(C)C)C(=O)NS(=O)(=O)C1CC1
6. C=C[C@@H]1C[C@]1(NC(=O)[C@@H]1C[C@@H](Oc2nc3cc(OC)ccc3nc2C(F)(F)F)CN1C(=O)[C@@H](NC(=O)OC(C)(C)C)C(C)(C)C)C(=O)NS(=O)(=O)C1(C)CC1

7.68
8.41
8.21
7.74
7.77
7.34

----------
# ASSAYED TARGET: Hepatitis C virus serine protease, NS3/NS4A (Hepatitis C virus, UniProt A3EZI9+D2K2A8, R155K)
# ASSAY EXPLANATION: Inhibition of HCV genotype 1a NS3/4A protease R155K mutant expressed in Escherichia coli BL21(DE3) using Ac-DE-Dap(QXL 520)-EE-Abu-psi-[COO]AS-C(5-FAMsp)-NH2 as substrate preincubated for 1 hr followed by substrate addition
RECORDED ENDPOINT: Ki (nM)
Answers are plain numbers, in nM.

Below, 3 molecules whose answers are already recorded.
>>> endpoint_value("C=C[C@@H]1C[C@]1(NC(=O)[C@@H]1C[C@@H](Oc2nc3cc(OC)ccc3nc2Cl)CN1C(=O)[C@@H](NC(=O)OC1CCCC1)C(C)(C)C)C(=O)NS(=O)(=O)C1CC1")
4.1
>>> endpoint_value("C=C[C@@H]1C[C@]1(NC(=O)[C@@H]1C[C@@H](Oc2nc3cc(OC)ccc3nc2CC)CN1C(=O)[C@@H](NC(=O)OC1CCCC1)C(C)(C)C)C(=O)NS(=O)(=O)C1(C)CC1")
13
>>> endpoint_value("C=C[C@@H]1C[C@]1(NC(=O)[C@@H]1C[C@@H](Oc2nc3cc(OC)ccc3nc2C(F)(F)F)CN1C(=O)[C@@H](NC(=O)OC(C)(C)C)C(C)(C)C)C(=O)NS(=O)(=O)C1CC1")
24

API: the following record is the query input.
Form: molecule = C=C[C@@H]1C[C@]1(NC(=O)[C@@H]1C[C@@H](Oc2nc3cc(OC)ccc3nc2CC)CN1C(=O)[C@@H](NC(=O)OC1CCCC1)C(C)(C)C)C(=O)NS(=O)(=O)C1CC1 ; Ki = 15
